Give log10(IC50) for every item shown.
Biological target: Human immunodeficiency virus type 1 integrase (Human immunodeficiency virus 1)
Test: Inhibition of HIV1 His6-tagged integrase-human GST tagged LEDGF/p75 (373-442 residues) interaction after 30 mins by AlphaScreen assay
Recorded IC50 (log10, nM)

Returns the measured log10(IC50) for the input compound. Input: COc1ccccc1CC(NC(=O)CCCC[C@]12CCC(C)(C)C[C@H]1C1=CC[C@@H]3[C@@]4(C)CC[C@H](O)C(C)(C)[C@@H]4CC[C@@]3(C)[C@]1(C)CC2)C(=O)O (mixture of isomers)
3.66

Lookup O=C(/C=C/c1cc(F)cc(F)c1)c1ccc(O)cc1O
3.24

And what about the compound COc1cc(CC(NC(=O)CCCC[C@]23CCC(C)(C)C[C@H]2C2=CC[C@@H]4[C@@]5(C)CC[C@H](O)C(C)(C)[C@@H]5CC[C@@]4(C)[C@]2(C)CC3)C(=O)O)cc(OC)c1 (mixture of isomers) ?
3.10

Please do the same for O=C(/C=C/c1cccc(O)c1O)c1c(O)cc(O)cc1O as well.
2.41

CC1(C)CC[C@]2(C(=O)O)CC[C@]3(C)C(=CC[C@@H]4[C@@]5(C)CC[C@H](OC(=O)C(=O)O)C(C)(C)[C@@H]5CC[C@]43C)[C@@H]2C1 ?
4.00

Next compound up: CC1(C)CC[C@]2(CCCCC(=O)NC(Cc3ccccc3Cl)C(=O)O)CC[C@]3(C)C(=CC[C@@H]4[C@@]5(C)CC[C@H](O)C(C)(C)[C@@H]5CC[C@]43C)[C@@H]2C1 (mixture of isomers)
2.81

---

Could you please report measured selectivity ratio for the items listed next?
Experiment: Therapeutic index, ratio of CC50 for human C8166 cells to EC50 for HIV-1 3B infected in C8166 cells
Type: cell-based
Conditions: read-out: Ratio CC50/EC50
Answer with the value's number alone.

Given the compound O=C(/C=C/c1ccccc1Cl)c1ccc(O)cc1O , what is its reported selectivity ratio?
4.88

# repeat for CC1(C)CC[C@]2(CCCCC(=O)NC(Cc3ccccc3Cl)C(=O)O)CC[C@]3(C)C(=CC[C@@H]4[C@@]5(C)CC[C@H](O)C(C)(C)[C@@H]5CC[C@]43C)[C@@H]2C1 (mixture of isomers)
2.12

# iterate: Cc1cn([C@H]2C[C@H](N=[N+]=[N-])[C@@H](CO)O2)c(=O)[nH]c1=O [ZIDOVUDINE]
473000

Then O=C(/C=C/c1cccc(O)c1O)c1c(O)cc(O)cc1O ?
3.76

---

Kindly supply the reported IC50 values for the records listed here.
Target: Human immunodeficiency virus type 1 integrase (Human immunodeficiency virus 1)
Assay: Inhibition of HIV1 His6-tagged integrase-human GST tagged LEDGF/p75 (373-442 residues) interaction after 30 mins by AlphaScreen assay
Kindly format the answer as number then unit.

Which IC50 value belongs to CC1(C)CC[C@]2(C(=O)O)CC[C@]3(C)C(=CC[C@@H]4[C@@]5(C)CC[C@H](OC(=O)CC(C)(C)C(=O)O)C(C)(C)[C@@H]5CC[C@]43C)[C@@H]2C1 ?
5.51 µM

Subsequent entry: O=C(/C=C/c1cc(O)ccc1O)c1ccc(O)cc1O
3.78 µM

Now give it for O=C(/C=C/c1ccc(O)c(O)c1)O[C@H](Cc1ccc(O)c(O)c1)C(=O)O too.
0.55 µM

Lookup Cc1nc2ccccc2c(-c2cc(F)c3c(c2C)CCCO3)c1[C@H](OC(C)(C)C)C(=O)O
0.019 µM
